For each of the compounds below, state its pIC50.
- Tested on: hROMK (human Kir1.1) (Homo sapiens (Human), UniProt P48048)
- Sequence (P48048 whole entry): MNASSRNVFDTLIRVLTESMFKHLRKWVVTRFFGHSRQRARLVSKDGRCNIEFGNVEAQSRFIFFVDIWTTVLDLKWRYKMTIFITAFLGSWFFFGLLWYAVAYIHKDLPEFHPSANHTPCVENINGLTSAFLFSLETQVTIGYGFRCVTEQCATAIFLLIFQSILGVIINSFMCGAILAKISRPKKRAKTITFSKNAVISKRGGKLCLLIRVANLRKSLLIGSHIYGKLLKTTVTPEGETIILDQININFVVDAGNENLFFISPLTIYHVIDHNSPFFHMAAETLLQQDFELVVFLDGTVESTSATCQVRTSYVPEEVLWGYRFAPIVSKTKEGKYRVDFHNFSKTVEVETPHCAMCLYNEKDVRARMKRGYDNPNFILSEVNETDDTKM
- Procedure summary: cell-based
- Condition info: CHO T-Rex hROMK stable cell line; thallium flux; 10-point concentration response curve; read-out: Human ROMK Th Flux IC50
Give bare numbers, as −log10 of the molar value.

Worked examples follow.
Cc1c([C@@H]2CN(Cc3cnn(-c4ccc(C#N)cc4)c3)CCO2)ccc2c1COC2=O    7.57
Cc1ncn(-c2ccc(CN3CC(=O)N[C@H](c4ccc5c(c4C)COC5=O)C3)cn2)n1    6.17
Cc1nc(-n2cc(CN3C[C@@H](c4ccc5c(c4C)COC5=O)N[C@@H](C)C3)cn2)ncc1C#N    7.57
Cc1c([C@@H]2CN(Cc3cn(-c4ccc5oc(=O)n(C)c5c4)cn3)CCO2)ccc2c1COC2=O    6.92
Cc1cc(-c2nnc(CN3CC(c4ccc5c(c4C)COC5=O)NC(C(F)F)C3)o2)ncc1C#N (single isomer, unassigned)    6.14

Give measured pIC50 for every item shown.
1. Cc1c([C@@H]2CN(Cc3cnc(-c4ccc5oc(=O)n(C)c5c4)s3)CCO2)ccc2c1COC2=O
2. COc1cc(-n2ncc(CN3CC(c4ccc5c(c4C)COC5=O)NC(C)(C)C3)n2)ncc1C#N (single isomer, unassigned)
3. Cc1cc(-n2nc(C)c(CN3CC(c4ccc5c(c4C)COC5=O)NC(C)(C)C3)n2)ncc1C#N (single isomer, unassigned)

6.74
7.77
7.51

Give measured pIC50 for every item shown.
1. COc1cc(-n2cnc(C)c2)ncc1CN1CCN[C@H](c2ccc3c(c2C)COC3=O)C1
2. Cc1cc(-n2cc(CN3C[C@@H](c4ccc5c(c4C)COC5=O)N[C@@H](C)C3)cn2)ncc1C#N
3. Cc1nn(-c2ccc(CN3CCN[C@H](c4ccc5c(c4C)COC5=O)C3)nc2)cc1C#N
4. Cc1c([C@@H]2CN(Cc3cnn(-c4ccc5oc(=O)n(C)c5c4)c3)CCN2)ccc2c1COC2=O

1. 7.28
2. 7.59
3. 7.39
4. 7.22

Give measured pIC50 for every item shown.
1. Cc1nc(-n2ncc(CN3C[C@@H](c4ccc5c(c4C)COC5=O)N[C@@H](C)C3)n2)ncc1C#N
2. COc1cc(N2CC(CN3C[C@@H](c4ccc5c(c4C)COC5=O)N[C@@H](C)C3)N(C)C2=O)ncc1C#N (some centres unmarked)

1. 7.40
2. 7.24

---

For each of the compounds below, state its inhibition at 1 µM.
- Tested on: UniProtKB Q12809
- Procedure summary: hERG Manual Patch Clamp Assay
- Assay type: cell-based
- Condition info: human, HEK 293 cells stably expressing hERG channels, pH 7.4, 1 uM, read-out: hERG EP % Inh @ 1 uM
Answers are plain numbers, in %.

Cc1cn(-c2ncc(CN3CCN[C@H](c4ccc5c(c4C)COC5=O)C3)cn2)nc1C#N    9.8
Cc1cc(-n2cc(CN3CC(c4ccc5c(c4C)COC5=O)NCC3CO)cn2)ncc1C#N (single isomer, unassigned)    7.2
Cc1cc(-n2cnc(CN3CC[C@@H](O)[C@H](c4ccc5c(c4C)COC5=O)C3)c2)ncc1C#N    4.5
Cc1cc(-n2cc(CN3CC[C@@H](O)[C@H](c4ccc5c(c4C)COC5=O)C3)n(C)c2=O)ncc1C#N    20
Cc1c([C@@H]2CN(Cc3cnn(-c4cccc(N(C)S(C)(=O)=O)n4)c3)C[C@H](C)N2)ccc2c1COC2=O    8.8
COc1nc(-n2cc(CN3C[C@@H](c4ccc5c(c4C)COC5=O)N[C@@H](C)C3)nc2C)ncc1C#N    11
Cc1cc(N2CCC(CN3CCN[C@H](c4ccc5c(c4C)COC5=O)C3)C2)ncc1C#N (single isomer, unassigned)    51
Cc1c([C@@H]2CN(Cc3ccc(-n4cc(C#N)nn4)nc3)CCN2)ccc2c1COC2=O    39
Cc1cc(-n2cc(CN3CC(CO)CC(c4ccc5c(c4C)COC5=O)C3)cn2)ncc1C#N (single isomer, unassigned)    44
Cc1cc(-c2cc(CN3C[C@@H](c4ccc5c(c4C)COC5=O)N[C@@H](C)C3)no2)ncc1C#N    5.2

Give measured inhibition at 1 µM for every item shown.
1. COc1cc(-n2cc(CN3CCN[C@H](c4ccc5c(c4C)COC5=O)C3)nn2)ncc1C#N
2. COc1cc(-n2ncc(CN3CC[C@@H](O)[C@H](c4ccc5c(c4C)COC5=O)C3)n2)ncc1C#N
3. COc1cc(-n2cc(CN3CCO[C@H](c4ccc5c(c4C)COC5=O)C3)cn2)ccc1C#N
4. Cc1cc(-c2nc(CN3C[C@@H](c4ccc5c(c4C)COC5=O)N[C@@H](C)C3)co2)ncc1C#N

[9.5, 5.1, 27, 8.4]

---

- Tested on: hROMK (human Kir1.1) (Homo sapiens (Human), UniProt P48048)
- Procedure summary: cell-based
- Condition info: CHO T-Rex hROMK stable cell line; thallium flux; 10-point concentration response curve; read-out: Human ROMK Th Flux IC50
Observed property: IC50 (µM)
Answers are plain numbers, in µM.

Cc1c([C@@H]2CN(Cc3cnn(-c4ccnc(C(F)F)c4)c3)C[C@H](C)N2)ccc2c1COC2=O    0.021
COc1c(CN2CCN[C@H](c3ccc4c(c3C)COC4=O)C2)cnn1-c1ccc2oc(=O)n(C)c2c1    0.11
Cc1c([C@@H]2CN(Cc3cnn(-c4ccsc4)c3)CCO2)ccc2c1COC2=O    3.4
Cc1nc(-n2cc(CN3CCN[C@H](c4ccc5c(c4C)COC5=O)C3)cn2)ncc1C#N    0.032
Cc1c([C@@H]2CN(Cc3ccc(-c4ccnc(N5CCOC5=O)c4)nc3)C[C@H](C)N2)ccc2c1COC2=O    0.22
Cc1nc(-n2cnc(CN3C[C@@H](c4ccc5c(c4C)COC5=O)N[C@@H](C)C3)c2)nc(C)c1C#N    0.026

What value of IC50 has been recorded for this entry: Cc1cc(N2CC(CN3CCN[C@H](c4ccc5c(c4C)COC5=O)C3)OC2=O)ncc1C#N (single isomer, unassigned)
0.13

---

- Tested on: UniProtKB P48048
- Procedure summary: cell-based
- Condition info: CHO T-Rex hROMK stable cell line; thallium flux; 10-point concentration response curve; read-out: Human ROMK Th Flux IC50
Criterion: IC50 strictly less than 100 nM. Met: 1. Not met: -1.

Examples with answers:
COC1CC(c2ccc3c(c2C)COC3=O)CN(Cc2cnn(-c3cc(C)c(C#N)cn3)c2)C1 (single isomer, unassigned)    1
COc1nc(-n2cc(CN3CCN[C@H](c4ccc5c(c4C)COC5=O)C3)nn2)cc(C)c1C#N    1
Cc1cn(-c2ccc(CN3CC(=O)N[C@H](c4ccc5c(c4C)COC5=O)C3)cn2)cn1    -1
Cc1c([C@@H]2CN(Cc3cnn(-c4ccc5oc(=O)n(C)c5c4)c3)CC(=O)N2)ccc2c1COC2=O    -1

Is IC50 of CNC(=O)OC1CCN(Cc2cnn(-c3cc(C)c(C#N)cn3)c2)CC1c1ccc2c(c1C)COC2=O (single isomer, unassigned) strictly below 100 nM?
-1

Is IC50 of `Cc1ncc(-n2cc(CN3CCO[C@H](c4ccc5c(c4C)COC5=O)C3)cn2)s1` strictly below 100 nM?
-1

---

- Tested on: hERG channels (Homo sapiens (Human), UniProt Q12809)
- Sequence (Q12809 whole entry): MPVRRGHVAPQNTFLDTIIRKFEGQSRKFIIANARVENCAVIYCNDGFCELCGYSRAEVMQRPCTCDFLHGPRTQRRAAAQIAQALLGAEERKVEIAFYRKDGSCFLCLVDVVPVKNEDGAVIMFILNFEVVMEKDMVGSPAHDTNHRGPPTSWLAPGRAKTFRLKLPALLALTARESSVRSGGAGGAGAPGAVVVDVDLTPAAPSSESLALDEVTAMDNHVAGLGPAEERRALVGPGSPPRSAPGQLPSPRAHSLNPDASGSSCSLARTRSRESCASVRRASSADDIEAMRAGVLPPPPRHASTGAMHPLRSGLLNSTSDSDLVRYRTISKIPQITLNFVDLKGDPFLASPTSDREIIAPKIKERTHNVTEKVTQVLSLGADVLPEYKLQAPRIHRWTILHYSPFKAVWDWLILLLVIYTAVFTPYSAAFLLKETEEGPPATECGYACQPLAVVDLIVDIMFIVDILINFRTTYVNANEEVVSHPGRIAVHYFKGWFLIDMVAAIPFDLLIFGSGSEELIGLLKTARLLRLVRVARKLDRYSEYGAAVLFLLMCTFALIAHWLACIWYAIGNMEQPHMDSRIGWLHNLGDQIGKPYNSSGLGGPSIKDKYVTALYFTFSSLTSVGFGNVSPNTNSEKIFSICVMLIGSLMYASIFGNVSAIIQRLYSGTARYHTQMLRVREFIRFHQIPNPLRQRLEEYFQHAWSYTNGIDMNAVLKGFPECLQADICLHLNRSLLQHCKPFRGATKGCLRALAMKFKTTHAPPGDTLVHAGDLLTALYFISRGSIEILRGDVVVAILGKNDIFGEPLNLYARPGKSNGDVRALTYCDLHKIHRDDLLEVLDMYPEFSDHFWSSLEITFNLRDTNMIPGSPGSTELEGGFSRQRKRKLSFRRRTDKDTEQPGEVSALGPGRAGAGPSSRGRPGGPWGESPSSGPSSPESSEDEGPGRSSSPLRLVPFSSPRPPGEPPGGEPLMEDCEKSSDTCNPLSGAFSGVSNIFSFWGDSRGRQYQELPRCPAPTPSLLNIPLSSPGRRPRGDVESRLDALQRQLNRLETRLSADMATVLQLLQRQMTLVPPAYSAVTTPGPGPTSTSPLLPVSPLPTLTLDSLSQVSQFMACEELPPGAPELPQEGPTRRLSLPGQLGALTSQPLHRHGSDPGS
- Procedure summary: hERG Manual Patch Clamp Assay
- Type: cell-based
- Condition info: human, HEK 293 cells stably expressing hERG channels, pH 7.4, 1 uM, read-out: hERG EP % Inh @ 1 uM
For each of the compounds below, state its inhibition at 1 µM.

Cc1cn(-c2ccc(CN3CCN[C@H](c4ccc5c(c4C)COC5=O)C3)cn2)cn1    0%
COc1nc(-n2cc(CN3C[C@@H](c4ccc5c(c4C)COC5=O)N[C@@H](C)C3)cn2)ccc1C#N    23%
Cc1cc(-c2cc(CN3CC(c4ccc5c(c4C)COC5=O)NC(C)(C)C3)on2)ncc1C#N (single isomer, unassigned)    9%
Cc1cc(N2CCOC2=O)cc(-n2cc(CN3C[C@@H](c4ccc5c(c4C)COC5=O)N[C@@H](C)C3)cn2)n1    7.6%
Cc1cc(-n2cc(CN3CC(CO)NC(c4ccc5c(c4C)COC5=O)C3)nn2)ncc1C#N (single isomer, unassigned)    8.3%
Cc1cc(-n2cc(CN3CCN[C@H](c4ccc5c(c4C)COC5=O)C3)c(C(F)F)n2)ncc1C#N    31%
Cc1cc(-n2cnc(CN3C[C@@H](c4ccc5c(c4C)COC5=O)N[C@@H](C)C3)c2)ncc1C#N    9.3%
COc1cc(N2CCC(CN3CCN[C@H](c4ccc5c(c4C)COC5=O)C3)C2)ncc1C#N (single isomer, unassigned)    43%

Give measured inhibition at 1 µM for every item shown.
1. COc1cc(-n2ncc(CN3CC(c4ccc5c(c4C)COC5=O)NC(C)(C)C3)n2)ncc1C#N (single isomer, unassigned)
2. Cc1cn(-c2ncc(CN3CCN[C@H](c4ccc5c(c4C)COC5=O)C3)cn2)cn1

["9.1%", "5.6%"]

Give measured inhibition at 1 µM for every item shown.
1. Cc1cc(-n2cc(CN3CC[C@@H](O)[C@H](c4ccc5c(c4C)COC5=O)C3)nn2)ncc1C#N
2. Cc1cc(-c2nc(CN3C[C@@H](c4ccc5c(c4C)COC5=O)N[C@@H](C)C3)no2)ncc1C#N
3. Cc1cc(-n2cc(CN3CC(O)CC(c4ccc5c(c4C)COC5=O)C3)cn2)ncc1C#N (single isomer, unassigned)

["6.7%", "8.6%", "22%"]
